- target_entity: Gamma-aminobutyric acid receptor subunit rho-1 (Homo sapiens)
- Sequence (P24046 whole entry): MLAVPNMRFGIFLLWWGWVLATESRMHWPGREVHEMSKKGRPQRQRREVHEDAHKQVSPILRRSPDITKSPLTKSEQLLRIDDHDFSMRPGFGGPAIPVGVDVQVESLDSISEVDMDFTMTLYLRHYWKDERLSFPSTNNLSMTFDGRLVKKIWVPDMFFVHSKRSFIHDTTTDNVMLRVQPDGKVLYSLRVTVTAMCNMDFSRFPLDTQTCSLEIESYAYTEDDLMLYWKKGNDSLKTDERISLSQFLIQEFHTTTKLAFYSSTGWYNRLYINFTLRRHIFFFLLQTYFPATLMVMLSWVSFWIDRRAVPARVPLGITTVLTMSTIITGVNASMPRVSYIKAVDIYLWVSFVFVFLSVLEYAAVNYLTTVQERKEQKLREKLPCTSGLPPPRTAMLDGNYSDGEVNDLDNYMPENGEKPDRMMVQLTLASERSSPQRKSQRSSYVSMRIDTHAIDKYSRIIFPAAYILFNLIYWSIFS
- assay_comment: Antagonist activity at recombinant human GABA-A rho-1 receptor transiently expressed in human tsA201 cells incubated for 30 mins and measured up to 90 secs by FMP dye based FLIPR membrane potential blue assay
result_type: IC50

molecule	observed
C[C@@H]1SC(N)=N[C@@H]1CC(=O)O (relative stereo)	100 µM
C[C@@H](C(=O)O)[C@H]1CSC(N)=N1 (relative stereo)	300 µM

Next, consider the following molecule.
query: What does the data say about its IC50? Entry: CC1(CC(=O)O)CSC(N)=N1 (stereo not drawn)
result: 300 µM

---

- target_entity: Gamma-aminobutyric acid receptor subunit alpha-4/beta-2/gamma-2 (Homo sapiens, UniProt P18507+P47870+P48169)
- Sequence (P47870 whole entry): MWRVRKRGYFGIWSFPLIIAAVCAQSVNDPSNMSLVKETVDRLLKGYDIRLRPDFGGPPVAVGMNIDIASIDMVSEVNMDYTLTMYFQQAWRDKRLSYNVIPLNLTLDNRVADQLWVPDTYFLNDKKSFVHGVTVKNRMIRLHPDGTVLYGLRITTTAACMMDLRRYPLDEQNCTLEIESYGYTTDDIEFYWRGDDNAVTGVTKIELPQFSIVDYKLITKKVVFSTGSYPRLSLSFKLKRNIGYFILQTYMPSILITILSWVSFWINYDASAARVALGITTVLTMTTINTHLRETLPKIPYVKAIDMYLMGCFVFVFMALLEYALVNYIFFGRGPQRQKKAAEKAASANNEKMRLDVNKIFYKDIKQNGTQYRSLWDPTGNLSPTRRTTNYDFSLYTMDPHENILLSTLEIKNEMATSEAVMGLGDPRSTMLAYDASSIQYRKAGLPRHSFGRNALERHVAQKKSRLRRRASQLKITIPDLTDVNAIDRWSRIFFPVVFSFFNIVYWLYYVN
- Sequence (P18507 whole entry): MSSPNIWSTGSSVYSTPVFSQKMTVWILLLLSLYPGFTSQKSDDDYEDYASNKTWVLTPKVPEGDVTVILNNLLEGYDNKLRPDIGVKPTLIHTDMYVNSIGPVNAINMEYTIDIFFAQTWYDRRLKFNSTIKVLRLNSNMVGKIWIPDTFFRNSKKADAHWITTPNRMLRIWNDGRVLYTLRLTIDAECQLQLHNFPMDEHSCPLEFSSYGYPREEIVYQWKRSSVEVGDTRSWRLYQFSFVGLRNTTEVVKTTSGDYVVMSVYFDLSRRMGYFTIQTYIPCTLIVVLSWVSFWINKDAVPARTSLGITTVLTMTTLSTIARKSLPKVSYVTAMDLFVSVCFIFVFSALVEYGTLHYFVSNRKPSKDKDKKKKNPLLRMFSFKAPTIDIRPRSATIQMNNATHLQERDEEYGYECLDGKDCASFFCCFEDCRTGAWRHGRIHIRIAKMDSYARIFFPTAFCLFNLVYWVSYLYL
- Sequence (P48169 whole entry): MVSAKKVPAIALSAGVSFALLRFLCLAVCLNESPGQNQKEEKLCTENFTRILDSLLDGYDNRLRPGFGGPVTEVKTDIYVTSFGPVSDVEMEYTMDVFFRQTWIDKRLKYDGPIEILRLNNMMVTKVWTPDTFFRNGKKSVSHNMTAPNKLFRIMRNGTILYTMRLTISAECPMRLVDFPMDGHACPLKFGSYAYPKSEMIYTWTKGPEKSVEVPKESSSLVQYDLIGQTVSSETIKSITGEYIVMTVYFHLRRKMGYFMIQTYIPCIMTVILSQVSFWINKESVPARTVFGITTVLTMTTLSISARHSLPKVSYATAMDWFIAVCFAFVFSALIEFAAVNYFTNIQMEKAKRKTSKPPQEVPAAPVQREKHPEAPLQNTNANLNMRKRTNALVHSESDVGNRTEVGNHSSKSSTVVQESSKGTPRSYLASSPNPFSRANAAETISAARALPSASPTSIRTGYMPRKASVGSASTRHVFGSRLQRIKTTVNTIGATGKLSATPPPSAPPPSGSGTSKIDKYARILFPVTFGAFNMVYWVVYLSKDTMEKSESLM
- assay_comment: Agonist activity at recombinant human GABA-A alpha4beta2gamma2S receptor transiently expressed in human tsA201 cells incubated for 30 mins and measured up to 90 secs by FMP dye based FLIPR membrane potential blue assay
- Format: cell-based
- conditions_used: read-out: EC50
EC50 strictly less than 9 µM = met. Otherwise not met.

Example entries begin here.
compound	assigned_category
NC1=NC(CC(=O)O)CS1 (stereo not drawn)	met
NC1=N[C@H](CC(=O)O)CS1	met
NC1=NC(CC(=O)O)CN1 (stereo not drawn)	not met
CC(C(=O)O)C1CSC(N)=N1 (stereo in doubt; l-10a)	not met
O=C(O)CC1CNC=N1 (stereo not drawn)	met
O=C(O)C[C@H]1CCNC1	met
NC1=N[C@@H](CC(=O)O)CS1	met

Moving on to another compound below.
query: Could you please tell me whether EC50 recorded for O=C(O)Cc1c[nH]cn1 is less than 9 µM?
result: not met
